- Organism: Rattus norvegicus
- experiment.description: Stimulation of [3H]IP (tritiated inositol monophosphate) formation in cross-chopped slices of the neonata rat cerebral cortex.
- Assay type: functional
measurement.name: pEC50
pEC50 field: float, defined as -log10 of concentration (mol/L).

Task: Look up pEC50: N[C@@]1(C(=O)O)CC[C@@H](C(=O)O)C1
Result: 4.56

* * *

- target: Glutamate NMDA receptor
- experiment.description: Affinity value against N-methyl-D-aspartate (NMDA) receptor using [3H]-CGS- 19755 in glutamate radioligand binding assay.
Quick reference for IC50 among some compounds

Reference set, count: 3
{"smiles.data": "N[C@@]1(C(=O)O)CN[C@@H](C(=O)O)C1", "IC50": "> 100 µM"}
{"smiles.data": "N[C@@]1(C(=O)O)CN[C@H](C(=O)O)C1", "IC50": "23.7 µM"}
{"smiles.data": "N[C@@]1(C(=O)O)CC[C@@H](C(=O)O)C1", "IC50": "> 100 µM"}

Task: I'd like to know its IC50. The compound in question is N[C@]1(C(=O)O)CN[C@H](C(=O)O)C1
Result: > 100 µM

* * *

- experiment.description: In vitro ability to displace [3H]glutamate binding to metabotropic glutamate receptors in rat forebrain membranes
- Assay type: cell membranes, Membrane
Catalogue of molecules with associated IC50
Write it as a number; the unit µM goes unstated.

{"smiles.data": "N[C@@]1(C(=O)O)CC[C@@H](C(=O)O)C1", "measurement.name": "IC50", "result": 10.3}

Now turn to the next molecule.
Task: I have this molecule here, N[C@@]1(C(=O)O)CN[C@@H](C(=O)O)C1 , and I need its recorded IC50.
Result: 6.49

* * *

- experiment.description: In vitro ability to displace [3H]glutamate binding to metabotropic glutamate receptors in rat forebrain membranes
- Format: cell membranes, Membrane
pIC50: −log10 of the molar value.
Collected pIC50 values appear next to each entry.

Answered cases to consult:
{"smiles.data": "N[C@@]1(C(=O)O)CN[C@H](C(=O)O)C1", "measurement.name": "pIC50", "result": "< 4.00"}
{"smiles.data": "N[C@]1(C(=O)O)CN[C@@H](C(=O)O)C1", "measurement.name": "pIC50", "result": "< 4.00"}

Please find the next compound below.
Task: Record request: pIC50 value, item N[C@]1(C(=O)O)CN[C@H](C(=O)O)C1
Result: < 4.00
